Molecular target: T1, huNectin4-His (human, UniProt Q96NY8 32-349)
T1 construct: Immobilized on the SPR chip; also called humanNectin4; human Nectin4; not shown: His tag
T1 sequence (looked up): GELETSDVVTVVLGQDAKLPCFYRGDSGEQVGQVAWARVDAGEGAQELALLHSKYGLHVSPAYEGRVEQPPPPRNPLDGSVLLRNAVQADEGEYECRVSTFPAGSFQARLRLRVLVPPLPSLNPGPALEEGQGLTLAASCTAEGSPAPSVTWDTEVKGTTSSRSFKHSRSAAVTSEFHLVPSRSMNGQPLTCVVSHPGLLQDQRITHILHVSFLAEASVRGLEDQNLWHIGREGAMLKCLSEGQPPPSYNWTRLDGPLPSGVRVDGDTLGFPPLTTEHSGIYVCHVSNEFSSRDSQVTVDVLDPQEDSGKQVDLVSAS
Test: SPR, huNectin4-His immobilized, pH 6.5
Experimental: Binding kinetics of anti-Nectin4 antibodies were measured by surface plasmon resonance using a SPR2/4 instrument (Sierra Sensors, Hamburg, Germany) and flat amine sensor chips. The SPR sensor contained four flow cells (FC1-FC4), each of which was addressed individually or in groups. huNectin4-His was immobilized in FC2, and cynoNectin4-mFc in FC4. No protein was immobilized in FC1 and FC3 which were used as control surfaces for FC2 and FC4, respectively. […] The off-rate was measured for 360s. […]
MEASURED PARAMETER: koff (s⁻¹)
The answer is to be given in s⁻¹; state only the numeric part.

input: GET /values?readout=koff&item= BAP-143-00-01 (antibody, V domains shown, Used as a conjugate with a linker payload (CAB ADC)) VH: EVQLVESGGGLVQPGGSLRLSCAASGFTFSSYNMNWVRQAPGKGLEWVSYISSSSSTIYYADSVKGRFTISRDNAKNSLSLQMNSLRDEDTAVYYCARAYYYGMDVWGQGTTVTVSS VL: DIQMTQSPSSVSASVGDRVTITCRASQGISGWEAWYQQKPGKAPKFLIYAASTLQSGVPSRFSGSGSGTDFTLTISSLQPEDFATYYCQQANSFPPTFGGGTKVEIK
output: 0.00245

input: Please give the result for BAP-143-00-03 (antibody, V domains shown, Used as a conjugate with a linker payload (CAB ADC)) VH: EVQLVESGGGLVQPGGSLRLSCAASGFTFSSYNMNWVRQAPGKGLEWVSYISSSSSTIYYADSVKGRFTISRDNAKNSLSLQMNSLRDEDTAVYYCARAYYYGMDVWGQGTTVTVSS VL: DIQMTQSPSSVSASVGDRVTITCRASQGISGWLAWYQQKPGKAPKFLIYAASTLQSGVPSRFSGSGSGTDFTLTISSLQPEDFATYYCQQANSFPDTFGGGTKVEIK too.
output: 0.00229

input: Please give the result for BAP-143-00-04 (antibody, V domains shown, Used as a conjugate with a linker payload (CAB ADC)) VH: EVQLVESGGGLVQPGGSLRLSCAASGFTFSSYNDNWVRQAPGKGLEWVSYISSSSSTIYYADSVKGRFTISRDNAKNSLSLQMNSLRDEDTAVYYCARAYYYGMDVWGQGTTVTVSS VL: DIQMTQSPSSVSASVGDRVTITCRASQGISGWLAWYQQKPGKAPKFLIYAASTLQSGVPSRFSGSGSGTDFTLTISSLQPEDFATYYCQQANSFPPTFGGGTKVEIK too.
output: 0.00439

input: Please give the result for BAP-143-00-06 (antibody, V domains shown, Used as a conjugate with a linker payload (CAB ADC)) VH: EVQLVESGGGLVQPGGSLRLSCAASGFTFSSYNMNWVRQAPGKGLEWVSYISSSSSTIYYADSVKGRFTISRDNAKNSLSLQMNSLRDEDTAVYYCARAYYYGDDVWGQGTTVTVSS VL: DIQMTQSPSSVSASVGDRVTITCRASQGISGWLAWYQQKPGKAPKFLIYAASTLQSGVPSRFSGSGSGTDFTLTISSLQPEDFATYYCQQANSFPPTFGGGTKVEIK too.
output: 0.000726

input: Please give the result for BAP-143-00-05 (antibody, V domains shown, Used as a conjugate with a linker payload (CAB ADC)) VH: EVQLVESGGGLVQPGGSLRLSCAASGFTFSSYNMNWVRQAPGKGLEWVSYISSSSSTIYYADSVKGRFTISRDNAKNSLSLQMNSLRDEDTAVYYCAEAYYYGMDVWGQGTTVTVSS VL: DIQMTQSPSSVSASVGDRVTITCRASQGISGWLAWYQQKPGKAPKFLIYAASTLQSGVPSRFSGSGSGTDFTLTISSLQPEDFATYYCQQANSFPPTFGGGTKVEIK too.
output: 0.00453
